Cited source for all entries: patent US11130769B2

studyTarget: UniProt Q07820
Sequence (Q07820 whole entry): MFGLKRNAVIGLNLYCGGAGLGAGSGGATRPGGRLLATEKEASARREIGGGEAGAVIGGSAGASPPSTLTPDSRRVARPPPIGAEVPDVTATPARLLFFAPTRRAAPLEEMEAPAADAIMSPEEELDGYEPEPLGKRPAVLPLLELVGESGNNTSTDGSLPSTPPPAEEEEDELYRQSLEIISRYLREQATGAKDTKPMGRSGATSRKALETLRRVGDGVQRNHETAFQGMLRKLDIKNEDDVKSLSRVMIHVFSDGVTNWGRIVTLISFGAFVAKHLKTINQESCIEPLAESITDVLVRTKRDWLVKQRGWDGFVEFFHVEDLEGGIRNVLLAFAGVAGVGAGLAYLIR
assayExplanation: Cell free Mcl-1:Bim affinity assay (fluorescence polarization competition)
Type: binding
settings: 15 nM MCL-1, 5 nM FITC-Bim, 1 hour at room temperature; class symbols; read-out: BIM_Ki
pKi: −log10 of the molar value.
experimentalReadout: pKi

Answered examples (4):
{"compoundString": "CN(C(=O)O[C@H]1/C=C/CN(C)C2(CCC2)C(=O)NS(=O)(=O)c2ccc3c(c2)N(C[C@@H]2CC[C@H]21)C[C@@]1(CCCc2cc(Cl)ccc21)CO3)C1COC1", "studyTarget": "UniProt Q07820", "resultValue": "> 9.00"}
{"compoundString": "CC1(C)OC/C=C/[C@H](OC(=O)N[C@@H]2CCOC2)[C@@H]2CC[C@H]2CN2C[C@@]3(CCOc4cc(Cl)ccc43)COc3ccc(cc32)S(=O)(=O)NC1=O", "studyTarget": "UniProt Q07820", "resultValue": "> 9.00"}
{"compoundString": "C[C@@H]1C(=O)NS(=O)(=O)c2ccc3c(c2)N(C[C@@H]2CC[C@H]2[C@@H](O)/C=C/CN1C)C[C@@]1(CCCc2cc(Cl)ccc21)CO3", "studyTarget": "UniProt Q07820", "resultValue": "7.00 to 9.00"}
{"compoundString": "CN(C(=O)O[C@H]1/C=C/COC(C)(C)C(=O)NS(=O)(=O)c2ccc3c(c2)N(C[C@@H]2CC[C@H]21)C[C@]1(CO3)OCCc2cc(Cl)ccc21)[C@@H]1CCOC1", "studyTarget": "UniProt Q07820", "resultValue": "> 9.00"}

Req: Form field - read-out: pKi; system: UniProt Q07820; submitted item: "CO[C@@H]1/C=C/CN(C)[C@@H](C2CC2)C(=O)NS(=O)(=O)c2ccc3c(c2)N(C[C@@H]2CC[C@H]21)C[C@@]1(CCCc2cc(Cl)ccc21)CO3"
Resp: 7.00 to 9.00
